Molecular target: T1, FZD5 cysteine-rich domain (CRD), MYC-tagged and GPI-anchored on CHO cells (human, UniProt Q13467 29-156, GPI anchor)
T1 construct: also called FZD5 CRD; CHO-myc-FZDGPI; not shown: MYC tag and GPI anchor signal
T1 sequence: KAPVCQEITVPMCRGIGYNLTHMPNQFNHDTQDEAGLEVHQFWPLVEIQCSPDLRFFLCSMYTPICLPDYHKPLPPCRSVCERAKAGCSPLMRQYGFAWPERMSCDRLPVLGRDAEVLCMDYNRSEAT
Assay: flow cytometry, CHO-CRD cells;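 further: flow cytometry of Fab binding to CHO cells overexpressing a Frizzled CRD, with binding defined as median fluorescence over twice that of CHO cells lacking any Frizzled CRD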
Item-by-item account of median fluorescence

BINDER	median fluorescence
Fab-2911 (Fab, V domains shown, Fab; also called Fv-2911) VH: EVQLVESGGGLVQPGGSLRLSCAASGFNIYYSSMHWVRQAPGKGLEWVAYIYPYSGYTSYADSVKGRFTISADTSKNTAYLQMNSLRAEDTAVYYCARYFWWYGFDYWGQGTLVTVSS VL: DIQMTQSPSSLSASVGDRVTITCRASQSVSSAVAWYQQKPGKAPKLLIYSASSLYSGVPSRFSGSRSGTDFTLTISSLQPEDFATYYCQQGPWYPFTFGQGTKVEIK	20.5
Fab-2900 (Fab, V domains shown, Fab; also called Fv-2900) VH: EVQLVESGGGLVQPGGSLRLSCAASGFNLSSYYIHWVRQAPGKGLEWVASISSSSSSTSYADSVKGRFTISADTSKNTAYLQMNSLRAEDTAVYYCARGALDYWGQGTLVTVSS VL: DIQMTQSPSSLSASVGDRVTITCRASQSVSSAVAWYQQKPGKAPKLLIYSASSLYSGVPSRFSGSRSGTDFTLTISSLQPEDFATYYCQQWYSGSSLFTFGQGTKVEIK	38.2
Fab-2928 (Fab, V domains shown, Fab; also called Fv-2928) VH: EVQLVESGGGLVQPGGSLRLSCAASGFNISYSSIHWVRQAPGKGLEWVASIYPSYSSTYYADSVKGRFTISADTSKNTAYLQMNSLRAEDTAVYYCARYYAMDYWGQGTLVTVSS VL: DIQMTQSPSSLSASVGDRVTITCRASQSVSSAVAWYQQKPGKAPKLLIYSASSLYSGVPSRFSGSRSGTDFTLTISSLQPEDFATYYCQQAFYYPITFGQGTKVEIK	42.9
Fab-2922 (Fab, V domains shown, Fab; also called Fv-2922) VH: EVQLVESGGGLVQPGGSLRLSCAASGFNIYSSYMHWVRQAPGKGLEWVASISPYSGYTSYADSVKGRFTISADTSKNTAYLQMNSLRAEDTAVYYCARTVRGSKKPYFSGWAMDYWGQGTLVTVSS VL: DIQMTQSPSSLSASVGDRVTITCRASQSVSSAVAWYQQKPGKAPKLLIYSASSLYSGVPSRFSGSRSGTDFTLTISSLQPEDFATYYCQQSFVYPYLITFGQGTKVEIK	56.2
Fab-2918 (Fab, V domains shown, Fab; also called Fv-2918) VH: EVQLVESGGGLVQPGGSLRLSCAASGFNLSYSSIHWVRQAPGKGLEWVASIYSSYSSTSYADSVKGRFTISADTSKNTAYLQMNSLRAEDTAVYYCARFGYWAIDYWGQGTLVTVSS VL: DIQMTQSPSSLSASVGDRVTITCRASQSVSSAVAWYQQKPGKAPKLLIYSASSLYSGVPSRFSGSRSGTDFTLTISSLQPEDFATYYCQQAFGASLFTFGQGTKVEIK	29.2
Fab-2914 (Fab, V domains shown, Fab; also called Fv-2914) VH: EVQLVESGGGLVQPGGSLRLSCAASGFNIYYSYMHWVRQAPGKGLEWVASIYPSSSSTSYADSVKGRFTISADTSKNTAYLQMNSLRAEDTAVYYCARGAMDYWGQGTLVTVSS VL: DIQMTQSPSSLSASVGDRVTITCRASQSVSSAVAWYQQKPGKAPKLLIYSASSLYSGVPSRFSGSRSGTDFTLTISSLQPEDFATYYCQQWYYGSLITFGQGTKVEIK	31.9
